Each recorded value in this set is attributed to patent US10023590B2.

system: Oryza sativa; assay: Greenhouse post-emergence herbicidal activity on crop ORYSA (rice); type: in vivo; settings: ORYSA (rice, crop), 0.063 kg/ha, scale 0 to 100
measured_endpoint: Herbicidal activity
Answer with a bare number; do not write a unit.

// worked examples, Herbicidal activity included
item_smiles: CS(=O)(=O)Nc1ccc(Cl)c(C2=C(O)c3ncccc3CS2(=O)=O)c1Cl
Herbicidal activity: 35
//
item_smiles: CN(c1ccc(Cl)c(C2=C(O)c3ncccc3CS2(=O)=O)c1Cl)S(C)(=O)=O
Herbicidal activity: 35
//
item_smiles: CN(c1c(Cl)ccc(C2=C(O)c3ncccc3C(C)(C)S2(=O)=O)c1Cl)S(=O)(=O)CC1CC1
Herbicidal activity: 30
//
item_smiles: CN(c1cccc(C2=C(O)c3ncccc3CS2(=O)=O)c1Cl)S(C)(=O)=O
Herbicidal activity: 0
//
item_smiles: CN(c1cccc(C2=C(O)c3ncccc3C(C)(C)S2(=O)=O)c1Cl)S(C)(=O)=O
Herbicidal activity: 10
//
item_smiles: Cc1c(C2=C(O)c3ncccc3C(C)(C)S2(=O)=O)cccc1N(C)S(C)(=O)=O
Herbicidal activity: 0

Just so you know, measured Herbicidal activity for "CC1(C)c2cccnc2C(O)=C(c2ccc(Cl)c(N(C3CC3)S(C)(=O)=O)c2Cl)S1(=O)=O" came out at 35

* * *

system: Zea mays; assay: Greenhouse post-emergence herbicidal activity on crop ZEAMX (corn, maize); type: in vivo; design: key: 0 = no damage/normal growth, 100 = no emergence or complete destruction; details: ZEAMX (corn, crop), 0.063 kg/ha, scale 0 to 100
measured_endpoint: Herbicidal activity
Reply with just the number.

Answered examples (6):
molecule: CN(c1cccc(C2=C(OC(=O)C(C)(C)C)c3ncccc3C(C)(C)S2(=O)=O)c1Cl)S(C)(=O)=O [I-16]
number: 0

molecule: Cc1c(C2=C(O)c3ncccc3CS2(=O)=O)ccc(Cl)c1N(C)S(C)(=O)=O [I-26]
number: 15

molecule: CN(c1c(Cl)ccc(C2=C(O)c3ncccc3CS2(=O)=O)c1Cl)S(=O)(=O)CC1CC1 [I-20]
number: 0

molecule: CN(c1c(Cl)ccc(C2=C(O)c3ncccc3CS2(=O)=O)c1Cl)S(=O)(=O)C1CC1 [I-27]
number: 20

molecule: Cc1c(C2=C(O)c3ncccc3C(C)(C)S2(=O)=O)ccc(Cl)c1N(C)S(C)(=O)=O [I-29]
number: 5

molecule: CCS(=O)(=O)N(C)c1c(Cl)ccc(C2=C(O)c3ncccc3C(C)(C)S2(=O)=O)c1Cl [I-19]
number: 0

Attention now shifts to the item below.
Herbicidal activity recorded for this molecule, CN(C)S(=O)(=O)Oc1c(Cl)ccc(C2=C(O)c3ncccc3C(C)(C)S2(=O)=O)c1Cl [I-23] , is 0

* * *

test system: Oryza sativa; assay: Greenhouse post-emergence herbicidal activity on crop ORYSA (rice); type: in vivo; conditions: ORYSA (rice, crop), 0.125 kg/ha, scale 0 to 100
measured_endpoint: Herbicidal activity
Keep it simple and answer with nothing but the number.

item_smiles: CN(c1cccc(C2=C(O)c3ncccc3CS2(=O)=O)c1Cl)S(C)(=O)=O
Herbicidal activity: 20
--
item_smiles: CN(C)S(=O)(=O)Oc1c(Cl)ccc(C2=C(O)c3ncccc3C(C)(C)S2(=O)=O)c1Cl
Herbicidal activity: 0
--
item_smiles: CN(c1ccc(Cl)c(C2=C(O)c3ncccc3CS2(=O)=O)c1Cl)S(C)(=O)=O
Herbicidal activity: 50
--
item_smiles: CN(c1ccc(Cl)c(C2=C(O)c3ncccc3C(C)(C)S2(=O)=O)c1Cl)S(C)(=O)=O
Herbicidal activity: 10

Herbicidal activity recorded for this compound, "CC(C)N(c1c(Cl)ccc(C2=C(O)c3ncccc3CS2(=O)=O)c1Cl)S(C)(=O)=O" , is 15

Notebook: "CS(=O)(=O)N(c1c(Cl)ccc(C2=C(O)c3ncccc3CS2(=O)=O)c1Cl)C1CC1" , Herbicidal activity read as 20

// "Cc1c(C2=C(O)c3ncccc3C(C)(C)S2(=O)=O)ccc(Cl)c1N(C)S(C)(=O)=O" : Herbicidal activity value = 35

Looking up "Cc1c(C2=C(OC(=O)C(C)(C)C)c3ncccc3C(C)(C)S2(=O)=O)cccc1N(C)S(C)(=O)=O" , I see its Herbicidal activity listed as 0

Summary for this compound, "Cc1c(C2=C(O)c3ncccc3C(C)(C)S2(=O)=O)cccc1N(C)S(C)(=O)=O" : Herbicidal activity is 10

Looking up "CS(=O)(=O)Nc1c(Cl)ccc(C2=C(O)c3ncccc3CS2(=O)=O)c1Cl" , I found its Herbicidal activity recorded as 0

The reported value for "CN(c1c(Cl)ccc(C2=C(O)c3ncccc3C(C)(C)S2(=O)=O)c1Cl)S(=O)(=O)CC1CC1" in terms of Herbicidal activity is 45

Herbicidal activity reported for this compound "CN(C)S(=O)(=O)Oc1c(Cl)ccc(C2=C(O)c3ncccc3CS2(=O)=O)c1Cl" : 40

The compound listed as "CC(C)N(c1c(Cl)ccc(C2=C(O)c3ncccc3C(C)(C)S2(=O)=O)c1Cl)S(C)(=O)=O" shows Herbicidal activity equal to 20

The reported Herbicidal activity of the compound "Cc1c(C2=C(O)c3ncccc3CS2(=O)=O)ccc(Cl)c1N(C)S(C)(=O)=O" was 45
